The entries below come with measured T/C values attached.
- Tested on: L1210 leukemia ip in BDF1 mice, survival T/C
- experiment.notes: NCI In Vivo Anticancer Drug Screen. Data for tumor model L1210 Leukemia (intraperitoneal) in B6D2F1 (BDF1) mice
- condition.info: endpoint: mean survival time; dose: 6.25 mg/kg/injection; schedule: Q01DX009 (ip); vehicle: saline; higher = longer survival
Inconclusive results and toxic doses are left out.
outcome.measure: T/C

# molecule, result
records = [
    ("NNC12CC3CC(CC(C3)C1)C2", "100 % of control"),
    ("CN(C)c1ccc(N=NC#N)cc1", "105 % of control"),
    ("CN(C)C1CC1c1ccccc1 (stereo unspecified)", "106 % of control"),
    ("CCCCCCCCc1ccc(NC(N)=S)cc1", "107 % of control"),
    ("CC1CN1c1nc(N2CC2C)nc(N2CC2C)n1 (stereo unspecified)", "92 % of control"),
    ("NNCCc1ccccc1", "105 % of control"),
]

----------
- Test system: L1210 leukemia ip in BDF1 mice, survival T/C
- experiment.notes: NCI In Vivo Anticancer Drug Screen. Data for tumor model L1210 Leukemia (intraperitoneal) in B6D2F1 (BDF1) mice
- condition.info: endpoint: mean survival time; dose: 200.0 mg/kg/injection; schedule: Q01DX009 (ip); vehicle: acetone; higher = longer survival
Inconclusive results and toxic doses are left out.
The entries below come with measured T/C values attached.
outcome.measure: T/C

# chemical.structure, outcome.measure, result
data = [
    ("CCOC(=O)C1(C(=O)OCC)COC(=O)C1", "T/C", "100 % of control"),
    ("O=S(=O)(O)CC1(CS(=O)(=O)O)COC1", "T/C", "106 % of control"),
    ("Cc1cc(Cl)c(C)c(Cl)c1Cl", "T/C", "95 % of control"),
    ("CC(=O)Nc1c(Cl)c(Cl)c2c(c1Cl)Cc1cc(Cl)c(Cl)cc1-2", "T/C", "97 % of control"),
]

----------
The entries below come with measured T/C values attached.
- Test system: L1210 leukemia ip in BDF1 mice, survival T/C
- experiment.notes: NCI In Vivo Anticancer Drug Screen. Data for tumor model L1210 Leukemia (intraperitoneal) in B6D2F1 (BDF1) mice
- condition.info: endpoint: mean survival time; dose: 100.0 mg/kg/injection; schedule: Q04DX003 (ip); vehicle: saline with Tween-80; higher = longer survival
Inconclusive results and toxic doses are left out.
outcome.measure: T/C

# molecule, tested.target, result
rows = [
    ("CN1CCC(c2ccccc2)(c2ccccc2)OC1", "L1210 leukemia ip in BDF1 mice, survival T/C", "94 % of control"),
    ("Cc1ccc(S(=O)(=O)CC(=O)NC(C)C)cc1", "L1210 leukemia ip in BDF1 mice, survival T/C", "100 % of control"),
    ("O=[N+]([O-])c1ccc2c(c1)c(-c1cccc(-c3ccccc3)c1)nc1ccccc12", "L1210 leukemia ip in BDF1 mice, survival T/C", "95 % of control"),
    ("S=C(N/N=C/c1ccccn1)N/N=C/c1ccccn1", "L1210 leukemia ip in BDF1 mice, survival T/C", "103 % of control"),
    ("CC(C)(C)NC(=O)Nc1cccc(OC(=O)NC(C)(C)C)c1", "L1210 leukemia ip in BDF1 mice, survival T/C", "90 % of control"),
    ("c1ccc2c(c1)cc1ncc3cccc4ccc2c1c43", "L1210 leukemia ip in BDF1 mice, survival T/C", "88 % of control"),
    ("Nc1cccc2c1C(=O)c1cccc(Cl)c1C2=O", "L1210 leukemia ip in BDF1 mice, survival T/C", "94 % of control"),
    ("C(#Cc1ccccc1)COCC1CO1 (configuration not stated)", "L1210 leukemia ip in BDF1 mice, survival T/C", "98 % of control"),
    ("COC(=O)CCCC1CC(=O)c2c(c(O)c3ccccc3c2O)C1=O (configuration not stated)", "L1210 leukemia ip in BDF1 mice, survival T/C", "119 % of control"),
    ("CC(=O)OCc1cc2ccccc2nc1C", "L1210 leukemia ip in BDF1 mice, survival T/C", "102 % of control"),
    ("O=C(O)C1CC1Oc1ccccc1 (configuration not stated)", "L1210 leukemia ip in BDF1 mice, survival T/C", "110 % of control"),
    ("c1ccc(N/N=C(\\Oc2ccccc2)c2ccccc2)cc1", "L1210 leukemia ip in BDF1 mice, survival T/C", "93 % of control"),
    ("COc1ccc(NC(=O)/C=C/C(=O)Nc2ccc(OC)cc2)cc1", "L1210 leukemia ip in BDF1 mice, survival T/C", "100 % of control"),
    ("COc1ccc(C(=O)Nc2ccccc2)cc1[N+](=O)[O-]", "L1210 leukemia ip in BDF1 mice, survival T/C", "101 % of control"),
    ("Nc1ncc(Br)cc1Br", "L1210 leukemia ip in BDF1 mice, survival T/C", "101 % of control"),
    ("CC(C)(O)C(I)C[n+]1ccccc1 (configuration not stated)", "L1210 leukemia ip in BDF1 mice, survival T/C", "106 % of control"),
    ("CCOc1ccc(NC(=S)NC(=O)c2cccc([N+](=O)[O-])c2)cc1", "L1210 leukemia ip in BDF1 mice, survival T/C", "98 % of control"),
    ("N#C/C(=C1C=C/C(=N/O)C(Cl)=C/1)c1ccc(Cl)cc1", "L1210 leukemia ip in BDF1 mice, survival T/C", "103 % of control"),
    ("OC(CC(O)(C(F)(F)F)C(F)(F)F)c1cccs1 (configuration not stated)", "L1210 leukemia ip in BDF1 mice, survival T/C", "106 % of control"),
    ("COc1ccccc1NC1=C(NC(=O)Cc2ccccc2)C(=O)c2ccccc2C1=O", "L1210 leukemia ip in BDF1 mice, survival T/C", "98 % of control"),
    ("CC(N)C(O)C(Cl)(Cl)Cl (configuration not stated)", "L1210 leukemia ip in BDF1 mice, survival T/C", "92 % of control"),
    ("CC1(C)N=C(N)Nc2nnc(-c3ccc(Cl)cc3)n21", "L1210 leukemia ip in BDF1 mice, survival T/C", "97 % of control"),
    ("Clc1nc2nc(Cl)n(Cl)c2nc1Cl", "L1210 leukemia ip in BDF1 mice, survival T/C", "98 % of control"),
    ("O=C(c1ccccc1)N1CC2CC3OC3c3cccc1c32 (configuration not stated)", "L1210 leukemia ip in BDF1 mice, survival T/C", "88 % of control"),
    ("Clc1ccc(/C=N/Nc2nc3ccccc3s2)c(Cl)c1", "L1210 leukemia ip in BDF1 mice, survival T/C", "93 % of control"),
    ("Cc1ccccc1NC(=O)CS", "L1210 leukemia ip in BDF1 mice, survival T/C", "95 % of control"),
    ("CC(=O)C(/C=N/C(=O)N(C)C)=C(/C)O", "L1210 leukemia ip in BDF1 mice, survival T/C", "98 % of control"),
]
